# Tested on: human PDE4
# Construct: PDE4 is partially purified from undifferentiated human monocytic cells (U-937) according to Thorpy et al. 1992 (J. Pharmacol. Exp. Ther. 263: 1195)
# assay-protocol: IMAP FP in vitro enzymatic PDE4 inhibition assay
# Format: biochemical
# recorded-conditions: PDE4 partially purified from human monocytic U-937 cells; 90 minutes at room temperature; fluorescence polarization
Listed compounds paired with reported IC50
metric: IC50 (µM)

1. CC[C@H]1OC(=O)[C@H](C)[C@@H](O[C@H]2C[C@@](C)(OC)[C@@H](O)[C@H](C)O2)[C@H](C)[C@@H](O[C@@H]2O[C@H](C)C[C@H](N(C)C)[C@H]2O)[C@](C)(OC)C[C@@H](C)C(=O)[C@H](C)[C@H]2[C@H](SCCN(Cc3cccnc3)c3ccc(OC)c(OC4CCCC4)c3)C(=O)O[C@@]21C | 0.85
2. CC[C@H]1OC(=O)[C@H](C)[C@@H](O[C@H]2C[C@@](C)(OC)[C@@H](O)[C@H](C)O2)[C@H](C)[C@@H](O[C@@H]2O[C@H](C)C[C@H](N(C)C)[C@H]2O)[C@](C)(OC)C[C@@H](C)C(=O)[C@H](C)[C@H]2[C@H](SCCn3cnc4c(N)nc(NCc5cccnc5)nc43)C(=O)O[C@@]21C | 3.8
3. CC[C@H]1OC(=O)[C@H](C)[C@@H](O[C@H]2C[C@@](C)(OC)[C@@H](O)[C@H](C)O2)[C@H](C)[C@@H](O[C@@H]2O[C@H](C)C[C@H](N(C)C)[C@H]2O)[C@](C)(OC)C[C@@H](C)C(=O)[C@H](C)[C@H]2[C@H](SCCCn3cnc4c(N)ncc(C(=O)Nc5ccncc5)c43)C(=O)O[C@@]21C | 4.7

* * *

# System: human PDE4
# Construct: PDE4 is partially purified from undifferentiated human monocytic cells (U-937) according to Thorpy et al. 1992 (J. Pharmacol. Exp. Ther. 263: 1195)
# assay-protocol: IMAP FP in vitro enzymatic PDE4 inhibition assay
# Assay type: biochemical
# recorded-conditions: PDE4 partially purified from human monocytic U-937 cells; 90 minutes at room temperature; fluorescence polarization
pIC50: −log10 of the molar value.
Listed molecules paired with reported pIC50
metric: pIC50

1) CC[C@H]1OC(=O)[C@H](C)[C@@H](O)[C@H](C)[C@@H](O[C@@H]2O[C@H](C)C[C@H](N(C)C)[C@H]2O)[C@](C)(OC)C[C@@H](C)C(=O)[C@H](C)[C@H]2[C@H](SCCn3cnc4c(N)ncc(C(=O)Nc5c(Cl)cncc5Cl)c43)C(=O)O[C@@]21C [Example 14] | 8.31
2) CC[C@H]1OC(=O)[C@H](C)[C@@H](O[C@H]2C[C@@](C)(OC)[C@@H](O)[C@H](C)O2)[C@H](C)[C@@H](O[C@@H]2O[C@H](C)C[C@H](N(C)C)[C@H]2O)[C@](C)(OC)C[C@@H](C)C(=O)[C@H](C)[C@H]2[C@H](SCCn3cnc4c(N)nc(NCc5ccncc5)nc43)C(=O)O[C@@]21C [Example 13] | 5.59

* * *

# Tested on: human PDE4
# Construct: PDE4 is partially purified from undifferentiated human monocytic cells (U-937) according to Thorpy et al. 1992 (J. Pharmacol. Exp. Ther. 263: 1195)
# assay-protocol: IMAP FP in vitro enzymatic PDE4 inhibition assay
# Assay type: biochemical
# recorded-conditions: PDE4 partially purified from human monocytic U-937 cells; 90 minutes at room temperature; fluorescence polarization
metric: IC50

1) CCC1OC(=O)C(C)C(OC2CC(C)(OC)C(O)C(C)O2)C(C)C(OC2OC(C)CC(N(C)C)C2O)C(C)(OC)CC(C)C(=O)C(C)C2C(SCCn3c(CCc4cccnc4)nc4c(N)ncnc43)C(=O)OC12C (stereo not drawn) | 13400 nM
2) CC[C@H]1OC(=O)[C@H](C)[C@@H](O[C@H]2C[C@@](C)(OC)[C@@H](O)[C@H](C)O2)[C@H](C)[C@@H](O[C@@H]2O[C@H](C)C[C@H](N(C)C)[C@H]2O)[C@](C)(OC)C[C@@H](C)C(=O)[C@H](C)[C@H]2[C@H](SCCNc3c(C(=O)Nc4c(Cl)cncc4Cl)cnc4c3cnn4CC)C(=O)O[C@@]21C | 370 nM
3) CC[C@H]1OC(=O)[C@H](C)[C@@H](O[C@H]2C[C@@](C)(OC)[C@@H](O)[C@H](C)O2)[C@H](C)[C@@H](O[C@@H]2O[C@H](C)C[C@H](N(C)C)[C@H]2O)[C@](C)(OC)C[C@@H](C)C(=O)[C@H](C)[C@H]2[C@H](SCCN(Cc3ccncc3)c3ccc(OC)c(OC4CCCC4)c3)C(=O)O[C@@]21C | 280 nM
4) CC[C@H]1OC(=O)[C@H](C)[C@@H](O[C@H]2C[C@@](C)(OC)[C@@H](O)[C@H](C)O2)[C@H](C)[C@@H](O[C@@H]2O[C@H](C)C[C@H](N(C)C)[C@H]2O)[C@](C)(OC)C[C@@H](C)C(=O)[C@H](C)[C@H]2[C@H](SCCCc3c(C(=O)Nc4ccncc4)ccc(OC)c3OC)C(=O)O[C@@]21C | 7600 nM
5) CSCCn1cnc2c(N)ncc(C(=O)Nc3c(Cl)cncc3Cl)c21 [reference compound] | 3600 nM
6) CC[C@H]1OC(=O)[C@H](C)C(=O)[C@H](C)[C@@H](O[C@@H]2O[C@H](C)C[C@H](N(C)C)[C@H]2O)[C@](C)(OC)C[C@@H](C)C(=O)[C@H](C)[C@H]2[C@H](SCCN(Cc3c(Cl)cncc3Cl)c3ccc(OC)c(OC4CCCC4)c3)C(=O)O[C@@]21C | 480 nM
